Target: VEGFR-2 (Homo sapiens (Human))
Sequence (P35968 20-1356): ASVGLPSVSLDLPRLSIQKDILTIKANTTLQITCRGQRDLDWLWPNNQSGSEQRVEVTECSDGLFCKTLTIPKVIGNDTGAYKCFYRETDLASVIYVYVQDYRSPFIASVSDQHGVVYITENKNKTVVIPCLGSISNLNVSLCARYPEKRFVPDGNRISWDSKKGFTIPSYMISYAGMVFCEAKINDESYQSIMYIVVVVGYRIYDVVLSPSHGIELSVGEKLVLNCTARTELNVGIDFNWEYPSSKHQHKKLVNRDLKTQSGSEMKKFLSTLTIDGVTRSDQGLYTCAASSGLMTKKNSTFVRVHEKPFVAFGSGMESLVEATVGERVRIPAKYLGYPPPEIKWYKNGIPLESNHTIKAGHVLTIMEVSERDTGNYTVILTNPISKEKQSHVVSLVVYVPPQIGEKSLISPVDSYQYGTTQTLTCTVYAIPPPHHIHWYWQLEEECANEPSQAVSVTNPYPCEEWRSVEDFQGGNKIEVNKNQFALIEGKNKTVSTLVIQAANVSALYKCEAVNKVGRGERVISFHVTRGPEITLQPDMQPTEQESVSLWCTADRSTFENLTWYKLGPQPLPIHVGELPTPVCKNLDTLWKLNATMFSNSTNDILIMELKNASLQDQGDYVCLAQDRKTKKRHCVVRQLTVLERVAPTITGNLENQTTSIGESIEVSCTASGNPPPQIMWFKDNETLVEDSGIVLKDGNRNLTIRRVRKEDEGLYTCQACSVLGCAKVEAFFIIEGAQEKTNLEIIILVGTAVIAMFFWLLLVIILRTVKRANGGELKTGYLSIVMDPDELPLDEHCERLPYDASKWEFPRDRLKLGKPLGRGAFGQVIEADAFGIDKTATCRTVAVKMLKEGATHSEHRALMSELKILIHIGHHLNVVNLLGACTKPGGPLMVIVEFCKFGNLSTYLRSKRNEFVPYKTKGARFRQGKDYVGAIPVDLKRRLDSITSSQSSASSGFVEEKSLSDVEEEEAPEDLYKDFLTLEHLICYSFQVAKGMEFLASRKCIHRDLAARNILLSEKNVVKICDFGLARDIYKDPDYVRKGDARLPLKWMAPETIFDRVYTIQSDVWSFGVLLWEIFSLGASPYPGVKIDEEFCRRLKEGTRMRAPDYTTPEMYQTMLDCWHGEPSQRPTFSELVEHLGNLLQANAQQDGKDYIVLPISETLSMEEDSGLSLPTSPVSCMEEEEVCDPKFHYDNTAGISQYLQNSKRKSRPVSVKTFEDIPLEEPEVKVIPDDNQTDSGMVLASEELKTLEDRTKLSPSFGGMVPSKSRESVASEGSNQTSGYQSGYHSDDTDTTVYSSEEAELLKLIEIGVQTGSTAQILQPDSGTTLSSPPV
Experiment: In vitro kinase inhibition assay, VEGFR2 (KDR) Kinase Assay Kit
Type: biochemical
Details: differs from Table 4
PROPERTY_MEASURED: IC50 (nM)

MOLECULE | SCALE_UNIT | RECORDED_NUMBER
Cc1ccc(S(=O)(=O)c2ccc(C3C(C(=O)c4ccccc4)=C(N)NC4=C3C(=O)CC(C)(C)C4)cc2)cc1 (stereo not shown) [Compound 4j] | nM | 304

----------
Molecular target: UniProtKB P09619
Sequence (P09619 33-1106, species assumed): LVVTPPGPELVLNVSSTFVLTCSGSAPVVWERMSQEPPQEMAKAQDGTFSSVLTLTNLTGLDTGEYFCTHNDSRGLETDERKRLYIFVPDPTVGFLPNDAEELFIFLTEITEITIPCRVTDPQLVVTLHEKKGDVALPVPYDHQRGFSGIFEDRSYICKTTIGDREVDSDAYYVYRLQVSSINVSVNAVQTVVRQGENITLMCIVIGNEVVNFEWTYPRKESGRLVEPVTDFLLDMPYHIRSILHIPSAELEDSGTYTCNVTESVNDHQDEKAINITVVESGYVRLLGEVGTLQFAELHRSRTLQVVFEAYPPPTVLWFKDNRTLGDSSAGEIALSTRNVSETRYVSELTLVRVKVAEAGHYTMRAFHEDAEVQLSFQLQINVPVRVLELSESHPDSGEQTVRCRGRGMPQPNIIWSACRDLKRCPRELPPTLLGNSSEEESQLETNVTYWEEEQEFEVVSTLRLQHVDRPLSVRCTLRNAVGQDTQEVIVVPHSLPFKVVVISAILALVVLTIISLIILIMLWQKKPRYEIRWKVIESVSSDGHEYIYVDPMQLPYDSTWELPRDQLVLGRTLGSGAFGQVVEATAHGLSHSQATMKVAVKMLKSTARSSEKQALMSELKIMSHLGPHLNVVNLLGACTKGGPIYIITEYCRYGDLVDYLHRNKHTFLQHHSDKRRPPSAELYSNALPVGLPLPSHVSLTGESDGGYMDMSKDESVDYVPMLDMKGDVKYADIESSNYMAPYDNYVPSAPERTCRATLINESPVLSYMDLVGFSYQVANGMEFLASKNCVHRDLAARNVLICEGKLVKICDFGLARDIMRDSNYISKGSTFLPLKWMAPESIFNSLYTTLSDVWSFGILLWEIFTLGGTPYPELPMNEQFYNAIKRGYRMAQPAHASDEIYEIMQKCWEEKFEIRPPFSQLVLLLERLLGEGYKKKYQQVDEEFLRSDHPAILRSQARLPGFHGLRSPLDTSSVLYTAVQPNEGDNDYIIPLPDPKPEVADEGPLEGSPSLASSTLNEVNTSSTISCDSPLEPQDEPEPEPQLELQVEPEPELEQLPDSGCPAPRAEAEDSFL
Test: In vitro kinase inhibition assay, PDGFR-β
Type: biochemical
Conditions: differs from Table 4
PROPERTY_MEASURED: IC50

COMPOUND | PROPERTY_MEASURED | RESULT
Cc1ccc(S(=O)(=O)c2ccc(C3C(C(=O)c4ccccc4)=C(N)NC4=C3C(=O)CC(C)(C)C4)cc2)cc1 (stereo not shown) [Compound 4j] | IC50 | 81.6 nM
